Target: N-terminally FLAG-tagged PARP2 (amino acids 1-583) (Homo sapiens, UniProt Q9UGN5)
Construct: N-terminally FLAG-tagged PARP2 (amino acids 1-583)
Sequence (Q9UGN5 whole entry, the tested form may be a part): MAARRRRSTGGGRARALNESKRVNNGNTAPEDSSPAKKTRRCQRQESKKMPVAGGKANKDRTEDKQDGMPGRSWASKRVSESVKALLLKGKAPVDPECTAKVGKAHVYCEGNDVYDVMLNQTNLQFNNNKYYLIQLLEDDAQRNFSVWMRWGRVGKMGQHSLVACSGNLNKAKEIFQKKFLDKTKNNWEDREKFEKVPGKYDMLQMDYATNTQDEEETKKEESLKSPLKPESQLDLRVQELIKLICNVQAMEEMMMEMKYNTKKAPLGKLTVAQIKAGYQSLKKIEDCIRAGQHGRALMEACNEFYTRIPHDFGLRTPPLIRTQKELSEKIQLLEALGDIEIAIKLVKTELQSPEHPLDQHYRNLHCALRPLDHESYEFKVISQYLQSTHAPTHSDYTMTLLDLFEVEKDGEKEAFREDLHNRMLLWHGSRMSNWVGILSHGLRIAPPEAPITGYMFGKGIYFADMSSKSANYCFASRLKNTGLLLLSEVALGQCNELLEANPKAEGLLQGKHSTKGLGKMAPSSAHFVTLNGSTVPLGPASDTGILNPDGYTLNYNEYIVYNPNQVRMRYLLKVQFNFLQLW
Experiment: PARP2 probe displacement HTRF assay
Assay type: binding
Conditions: binned Kd, PARP2 probe displacement HTRF
Procedure: Data analysis was performed identical as for PARP1.
pKd: −log10 of the molar value.
observedProperty: pKd

Reference set (4 entries):
{"columns": ["compound", "experimentalValue"],
 "data": [
  ["CNC(=O)c1ccc(N2CCC(N3CCC(c4nc5cccc(Cl)c5c(=O)[nH]4)C3)CC2)cn1 (single isomer, unassigned) [Compound 85b]", "7.00 to 8.00"],
  ["CNC(=O)c1ccc(N2CCC(N3CCC(c4nc5cnccc5c(=O)[nH]4)C3)CC2)cn1 (single isomer, unassigned) [Compound 84a]", "< 5.00"],
  ["CNC(=O)c1ccc(N2CCC(N3CCCC(Cc4nc5ccccc5c(=O)[nH]4)C3)CC2)cn1 (single isomer, unassigned) [Compound 57a]", "< 5.00"],
  ["NC(=O)c1ccc(N2CCC(N3CCC(c4nc5ccccc5c(=O)[nH]4)C3)CC2)cn1 (single isomer, unassigned) [Compound 123a]", "6.00 to 7.00"]
]}

Q: // query pKd value for entry CNC(=O)c1ccc(N2CCC(N3CCCC(c4nc5c(c(=O)[nH]4)CCCC5)C3)CC2)cn1 (single isomer, unassigned) [Compound 146b]
A: < 5.00

Q: Also, CCc1cnc(C2CCCN(C3CCN(c4ccc(C(=O)NC)nc4)CC3)C2)[nH]c1=O (single isomer, unassigned) [Compound 31b] please.
A: < 5.00
